Ref: patent US20160375006A1

molecular target: GSK3β (Homo sapiens, UniProt P49841)
Sequence (P49841 whole entry): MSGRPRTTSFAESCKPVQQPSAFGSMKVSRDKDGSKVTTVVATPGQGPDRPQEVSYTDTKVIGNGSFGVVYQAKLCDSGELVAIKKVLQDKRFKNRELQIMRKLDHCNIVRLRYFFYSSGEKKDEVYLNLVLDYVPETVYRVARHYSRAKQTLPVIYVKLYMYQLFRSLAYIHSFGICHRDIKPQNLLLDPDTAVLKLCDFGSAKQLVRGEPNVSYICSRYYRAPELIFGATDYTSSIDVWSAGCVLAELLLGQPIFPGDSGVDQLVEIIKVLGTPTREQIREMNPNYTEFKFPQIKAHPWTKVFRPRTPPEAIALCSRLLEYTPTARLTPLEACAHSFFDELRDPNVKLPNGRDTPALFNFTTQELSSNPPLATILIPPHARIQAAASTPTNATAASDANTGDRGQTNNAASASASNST
TEST READOUT: IC50 (nM)
Return type: number; implicit unit nM.

What does the record list as IC50 for CC(C)(C)Cc1[nH]nc2c1[C@](C)(c1ccccc1)C1=C(CC(C)(C)CC1=O)N2 ? 27

====

target: CDK5/p25 (Homo sapiens, UniProt Q00535); conditions: CDK5/p25
Sequence (Q00535 whole entry, species assumed): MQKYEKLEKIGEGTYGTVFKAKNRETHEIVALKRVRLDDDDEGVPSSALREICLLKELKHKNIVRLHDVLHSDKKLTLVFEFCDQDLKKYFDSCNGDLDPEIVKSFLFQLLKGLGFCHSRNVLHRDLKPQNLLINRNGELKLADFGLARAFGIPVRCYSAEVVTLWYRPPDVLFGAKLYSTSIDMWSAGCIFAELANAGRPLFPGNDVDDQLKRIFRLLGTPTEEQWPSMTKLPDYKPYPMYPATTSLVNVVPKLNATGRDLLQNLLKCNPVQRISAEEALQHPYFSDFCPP
Sequence (Q15078 99-307 partner limits assumed, species assumed): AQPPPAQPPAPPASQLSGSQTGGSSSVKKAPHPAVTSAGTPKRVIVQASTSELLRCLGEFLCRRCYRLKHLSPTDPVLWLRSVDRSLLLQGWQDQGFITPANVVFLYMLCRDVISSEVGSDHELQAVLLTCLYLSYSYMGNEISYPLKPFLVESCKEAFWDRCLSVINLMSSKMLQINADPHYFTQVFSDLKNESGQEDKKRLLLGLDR
TEST READOUT: IC50 (µM)
Field format: number, assumed µM, no unit text.

Notebook: pull reported IC50 for CDK5/p25 (Homo sapiens, UniProt Q00535), entry CC(C)(C)Cc1[nH]nc2c1[C@](C)(c1ccccc1)C1=C(CC(C)(C)CC1=O)N2 8.9

====

test system: phospho-Tau (Ser199); assay: Tau phosphorylation (Ser199) ELISA in SH-SY5Y cells; type: cell-based; details: Homo sapiens, read-out: p-Tau Inhibition ELISA EC50 SH-SY5Y
Entries and their EC50 values follow.
All answers are understood in µM, so give the number only.

CC1(C)CC(=O)C2=C(C1)Nc1n[nH]c(C(F)(F)F)c1C2(C)c1ccccc1F (centres unmarked) :: 2.41
CC1(C)CC(=O)C2=C(C1)Nc1n[nH]c(C(F)(F)F)c1C2c1ccccc1C(F)(F)F (centres unmarked) :: 0.652
CC1(C)CC(=O)C2=C(C1)Nc1n[nH]c(C(F)(F)F)c1C2c1cccc(F)c1C(F)(F)F (centres unmarked) :: 1.38
CC1(C)CC(=O)C2=C(C1)Nc1n[nH]c(C(F)(F)F)c1C2c1ccccc1 (centres unmarked) :: 0.507

Any idea what EC50 was measured for CC1(C)CC(=O)C2=C(C1)Nc1n[nH]c(C(F)(F)F)c1C2c1cccnc1 (centres unmarked) ? 2.09

Look up EC50 for this compound: CC1(C)CC(=O)C2=C(C1)Nc1n[nH]c(Br)c1C2c1ccccc1 (centres unmarked) 2.09

Dear colleague, I am looking for the recorded EC50 of the following compound: CC1(C)CC(=O)C2=C(C1)Nc1n[nH]c(C(F)(F)F)c1C2(C)c1ccccc1 (racemic) 1.58

====

molecular target: GSK3α (Homo sapiens); test: biochemical
Sequence (P49840 whole entry): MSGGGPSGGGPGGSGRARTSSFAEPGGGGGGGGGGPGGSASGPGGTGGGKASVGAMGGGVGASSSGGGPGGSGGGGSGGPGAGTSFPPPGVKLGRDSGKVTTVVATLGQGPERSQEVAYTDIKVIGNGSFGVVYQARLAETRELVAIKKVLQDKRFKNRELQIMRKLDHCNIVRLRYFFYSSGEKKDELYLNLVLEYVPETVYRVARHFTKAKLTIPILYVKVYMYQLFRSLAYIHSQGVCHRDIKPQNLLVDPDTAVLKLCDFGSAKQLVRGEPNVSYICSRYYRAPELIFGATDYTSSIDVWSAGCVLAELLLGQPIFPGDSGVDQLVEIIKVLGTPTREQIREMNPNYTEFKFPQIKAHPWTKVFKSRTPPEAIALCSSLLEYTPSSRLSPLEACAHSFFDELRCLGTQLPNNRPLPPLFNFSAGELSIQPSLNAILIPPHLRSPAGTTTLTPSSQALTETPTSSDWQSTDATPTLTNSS
TEST READOUT: pIC50
Reminder that pIC50 is minus the log10 of a molar concentration.

CC1(C)CC(=O)C2=C(C1)Nc1n[nH]c(C3CC(F)(F)C3)c1C2(C)c1ccccc1 (racemic) :: 6.21
CCc1ccccc1[C@H]1C2=C(CC(C)(C)CC2=O)Nc2n[nH]c(C(C)C)c21 :: 7.04
CC1(C)CC(=O)C2=C(C1)Nc1n[nH]c(C3CC(F)(F)C3)c1[C@@]21CCOc2ccccc21 :: 6.79

// switching to the query molecule
Any idea what its pIC50 is? The molecule is COc1ccccc1[C@@H]1C2=C(CC(C)(C)CC2=O)Nc2n[nH]c(CC(C)(C)C)c21 (stereo in doubt) 4.97

====

biological target: GSK3β (Homo sapiens, UniProt P49841); conditions: Caliper assay; GSK3β over GSK3α
TEST READOUT: GSK3β fold selectivity
State the value, then name its unit.

Solved entries:
COc1cc(F)ccc1[C@@H]1C2=C(CC(C)(C)CC2=O)Nc2n[nH]c(C(C)C)c21 [Compound 324] :: 2.8 fold
COc1ccccc1C1C2=C(CC(C)(C)CC2=O)Nc2n[nH]c(CC(C)(C)C)c21 (racemic) [Compound 278] :: 13.3 fold
CC(C)(C)Cc1[nH]nc2c1[C@@]1(CCOc3ccccc31)C1=C(CC(C)(C)CC1=O)N2 (stereo in doubt) [Compound 288] :: 7.7 fold
CC(C)c1[nH]nc2c1C(C)(c1ccccc1)C1=C(CC(C)(C)CC1=O)N2 (centres unmarked) [Compound 296] :: 3.2 fold
CC[C@@]1(c2cccc(C(C)(C)C)c2)C2=C(CC(C)(C)CC2=O)Nc2n[nH]cc21 (stereo in doubt) [Compound 226] :: 4.3 fold
CC(C)(C)Cc1[nH]nc2c1[C@]1(CCOc3ccccc31)C1=C(CC(C)(C)CC1=O)N2 (stereo in doubt) [Compound 289] :: 5.6 fold
COc1ccccc1[C@H]1C2=C(CC(C)(C)CC2=O)Nc2n[nH]c(C3CC(F)(F)C3)c21 (stereo in doubt) [Compound 251] :: 14.9 fold

Now for the compound whose GSK3β fold selectivity we want.
Quick check: GSK3β fold selectivity of CCC(C)c1[nH]nc2c1C(C)(c1ccccc1)C1=C(CC(C)(C)CC1=O)N2 (centres unmarked) [Compound 299] ? 3.1 fold
